Tested on: LNCaP tumor xenograft-bearing CB17-SCID mice
PROTOCOL: Biodistribution in LNCaP tumor xenograft-bearing CB17-SCID mice
EXPERIMENTAL SETUP: 24 h p.i.

# MOLECULE, VALUE UNIT, Biodistribution Intestine
measured = [
    ("CC(C)(C)[Si](F)(c1ccc(C(=O)NC[C@@H](NC(=O)CN2CCN(CC(=O)[O-])CCN(CC(=O)[O-])CCN(CC(=O)[O-])CC2)C(=O)N[C@H](CCCCNC(=O)CCC(=O)NCCC[C@@H](NC(=O)CC[C@H](NC(=O)O[C@@H](CCC(=O)O)C(=O)O)C(=O)O)C(=O)O)C(=O)O)cc1)C(C)(C)C.[177Lu+3] [[^177Lu]Lu-3, [^177Lu]Lu-Carbamate I]", "% ID/g", 0.12),
]

* * *

System: LNCaP tumor xenograft-bearing CB17-SCID mice
PROTOCOL: Biodistribution in LNCaP tumor xenograft-bearing CB17-SCID mice
EXPERIMENTAL SETUP: 24 h p.i.
Biodistribution Adrenals values by entry
REPORTED PROPERTY: Biodistribution Adrenals

# MOLECULE, OBSERVED
measured = [
    ("CC(C)(C)[Si](F)(c1ccc(C(=O)NCC(NC(=O)CN2CCN(CC(=O)[O-])CCN(CC(=O)[O-])CCN(CC(=O)[O-])CC2)C(=O)NC(CCCCNC(=O)CCC(=O)NCCCC(NC(=O)CCC(NC(=O)NC(CCc2nnn[nH]2)C(=O)O)C(=O)O)C(=O)O)C(=O)O)cc1)C(C)(C)C.[177Lu+3] (centres unmarked) [[^177Lu]Lu-11, [^177Lu]Lu-Tetrazole Derivative 11]", "0.17 ± 0.19 % ID/g"),
    ("CSCC[C@H](NC(=O)CC[C@H](NC(=O)N[C@@H](CCC(=O)N[C@H](CCCNC(=O)CCC(=O)NCCCC[C@@H](NC(=O)[C@@H](CNC(=O)c1ccc([Si](F)(C(C)(C)C)C(C)(C)C)cc1)NC(=O)CN1CCN(CC(=O)[O-])CCN(CC(=O)[O-])CCN(CC(=O)[O-])CC1)C(=O)O)C(=O)O)C(=O)O)C(=O)O)C(=O)O.[177Lu+3] [[^177Lu]Lu-5, [^177Lu]Lu-Proinhibitor I]", "0.00 ± 0.00 % ID/g"),
]

* * *

Test system: LNCaP tumor xenograft-bearing CB17-SCID mice
PROTOCOL: Biodistribution in LNCaP tumor xenograft-bearing CB17-SCID mice
EXPERIMENTAL SETUP: 24 h p.i.
Listed below: Biodistribution Kidneys values for each entry.

# COMPOUND, TARGET OR TEST SYSTEM, VALUE UNIT, Biodistribution Kidneys
measured = [
    ("CCCCCC[C@H](NC(=O)CC[C@H](NC(=O)N[C@@H](CCC(=O)N[C@H](CCCNC(=O)CCC(=O)NCCCC[C@@H](NC(=O)[C@@H](CNC(=O)c1ccc([Si](F)(C(C)(C)C)C(C)(C)C)cc1)NC(=O)CN1CCN(CC(=O)[O-])CCN(CC(=O)[O-])CCN(CC(=O)[O-])CC1)C(=O)O)C(=O)O)C(=O)O)C(=O)O)C(=O)O.[177Lu+3] [[^177Lu]Lu-6, [^177Lu]Lu-Proinhibitor II]", "LNCaP tumor xenograft-bearing CB17-SCID mice", "% ID/g", 2.36),
    ("CC(C)(C)[Si](F)(c1ccc(C(=O)NCC(NC(=O)CN2CCN(CC(=O)[O-])CCN(CC(=O)[O-])CCN(CC(=O)[O-])CC2)C(=O)NC(CCCCNC(=O)CCC(=O)NCCCC(NC(=O)CCC(NC(=O)NC(CCc2nnn[nH]2)C(=O)O)C(=O)O)C(=O)O)C(=O)O)cc1)C(C)(C)C.[177Lu+3] (centres unmarked) [[^177Lu]Lu-11, [^177Lu]Lu-Tetrazole Derivative 11]", "LNCaP tumor xenograft-bearing CB17-SCID mice", "% ID/g", 3.23),
]

* * *

System: LNCaP tumor xenograft-bearing CB17-SCID mice
PROTOCOL: Biodistribution in LNCaP tumor xenograft-bearing CB17-SCID mice
EXPERIMENTAL SETUP: 24 h p.i.
REPORTED PROPERTY: Biodistribution Lung (% ID/g)

# MOLECULE, OBSERVED
data = [
    ("CCCCCC[C@H](NC(=O)CC[C@H](NC(=O)N[C@@H](CCC(=O)N[C@H](CCCNC(=O)CCC(=O)NCCCC[C@@H](NC(=O)[C@@H](CNC(=O)c1ccc([Si](F)(C(C)(C)C)C(C)(C)C)cc1)NC(=O)CN1CCN(CC(=O)[O-])CCN(CC(=O)[O-])CCN(CC(=O)[O-])CC1)C(=O)O)C(=O)O)C(=O)O)C(=O)O)C(=O)O.[177Lu+3] [[^177Lu]Lu-6, [^177Lu]Lu-Proinhibitor II]", 0.10),
]

* * *

System: LNCaP tumor xenograft-bearing CB17-SCID mice
PROTOCOL: Biodistribution in LNCaP tumor xenograft-bearing CB17-SCID mice
EXPERIMENTAL SETUP: 24 h p.i.
In this section, each of the compounds is paired with its reported Biodistribution Tumor.
REPORTED PROPERTY: Biodistribution Tumor (% ID/g)

# COMPOUND, VALUE UNIT, OBSERVED
data = [
    ("CSCC[C@H](NC(=O)CC[C@H](NC(=O)N[C@@H](CCC(=O)N[C@H](CCCNC(=O)CCC(=O)NCCCC[C@@H](NC(=O)[C@@H](CNC(=O)c1ccc([Si](F)(C(C)(C)C)C(C)(C)C)cc1)NC(=O)CN1CCN(CC(=O)[O-])CCN(CC(=O)[O-])CCN(CC(=O)[O-])CC1)C(=O)O)C(=O)O)C(=O)O)C(=O)O)C(=O)O.[177Lu+3] [[^177Lu]Lu-5, [^177Lu]Lu-Proinhibitor I]", "% ID/g", 0.09),
    ("CCCCCC[C@H](NC(=O)[C@H](CCC(=O)O)NC(=O)N[C@@H](CCC(=O)N[C@H](CCCNC(=O)CCC(=O)NCCCC[C@@H](NC(=O)[C@@H](CNC(=O)c1ccc([Si](F)(C(C)(C)C)C(C)(C)C)cc1)NC(=O)CN1CCN(CC(=O)[O-])CCN(CC(=O)[O-])CCN(CC(=O)[O-])CC1)C(=O)O)C(=O)O)C(=O)O)C(=O)O.[177Lu+3] [[^177Lu]Lu-7, [^177Lu]Lu-Proinhibitor III]", "% ID/g", 0.14),
    ("CC(C)(C)[Si](F)(c1ccc(C(=O)NCC(NC(=O)CN2CCN(CC(=O)[O-])CCN(CC(=O)[O-])CCN(CC(=O)[O-])CC2)C(=O)NC(CCCCNC(=O)CCC(=O)NCCCC(NC(=O)CCC(NC(=O)NC(CCc2nnn[nH]2)C(=O)O)C(=O)O)C(=O)O)C(=O)O)cc1)C(C)(C)C.[177Lu+3] (stereo not drawn) [[^177Lu]Lu-11, [^177Lu]Lu-Tetrazole Derivative 11]", "% ID/g", 0.68),
]

* * *

Quick reference for Biodistribution Kidneys among some compounds
Tested on: LNCaP tumor xenograft-bearing CB17-SCID mice
PROTOCOL: Biodistribution in LNCaP tumor xenograft-bearing CB17-SCID mice
EXPERIMENTAL SETUP: 24 h p.i.

# COMPOUND, Biodistribution Kidneys / % ID/g
records = [
    ("CSCC[C@H](NC(=O)CC[C@H](NC(=O)N[C@@H](CCC(=O)N[C@H](CCCNC(=O)CCC(=O)NCCCC[C@@H](NC(=O)[C@@H](CNC(=O)c1ccc([Si](F)(C(C)(C)C)C(C)(C)C)cc1)NC(=O)CN1CCN(CC(=O)[O-])CCN(CC(=O)[O-])CCN(CC(=O)[O-])CC1)C(=O)O)C(=O)O)C(=O)O)C(=O)O)C(=O)O.[177Lu+3] [[^177Lu]Lu-5, [^177Lu]Lu-Proinhibitor I]", 0.48),
    ("CC(C)(C)[Si](F)(c1ccc(C(=O)NC[C@@H](NC(=O)CN2CCN(CC(=O)[O-])CCN(CC(=O)[O-])CCN(CC(=O)[O-])CC2)C(=O)N[C@H](CCCCNC(=O)CCC(=O)NCCC[C@@H](NC(=O)CC[C@H](NC(=O)O[C@@H](CCC(=O)O)C(=O)O)C(=O)O)C(=O)O)C(=O)O)cc1)C(C)(C)C.[177Lu+3] [[^177Lu]Lu-3, [^177Lu]Lu-Carbamate I]", 0.31),
    ("CCCCCC[C@H](NC(=O)[C@H](CCC(=O)O)NC(=O)N[C@@H](CCC(=O)N[C@H](CCCNC(=O)CCC(=O)NCCCC[C@@H](NC(=O)[C@@H](CNC(=O)c1ccc([Si](F)(C(C)(C)C)C(C)(C)C)cc1)NC(=O)CN1CCN(CC(=O)[O-])CCN(CC(=O)[O-])CCN(CC(=O)[O-])CC1)C(=O)O)C(=O)O)C(=O)O)C(=O)O.[177Lu+3] [[^177Lu]Lu-7, [^177Lu]Lu-Proinhibitor III]", 2.04),
]
